molecular target: human melanocortin 4 receptor (human, UniProt P32245 1-332); experiment: cell-based or functional assay
Sequence (P32245 whole entry): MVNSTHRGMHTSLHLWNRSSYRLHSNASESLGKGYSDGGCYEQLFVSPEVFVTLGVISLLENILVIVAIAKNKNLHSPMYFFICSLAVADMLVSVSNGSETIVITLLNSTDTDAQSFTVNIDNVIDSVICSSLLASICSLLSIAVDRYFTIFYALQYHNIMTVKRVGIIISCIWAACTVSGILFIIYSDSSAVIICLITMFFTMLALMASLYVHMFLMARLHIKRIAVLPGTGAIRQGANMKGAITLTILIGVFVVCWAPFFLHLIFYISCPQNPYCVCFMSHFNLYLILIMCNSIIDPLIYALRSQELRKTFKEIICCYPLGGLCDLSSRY
Positions of bridges follow the written chain, without caps; N, C: chain ends. Non-standard residues stand in square brackets, D forms with d. Hyp = O=C(O)[C@@H]1C[C@@H](O)CN1; Pen = CC(C)(S)[C@H](N)C(=O)O; Thz = O=C(O)[C@@H]1CSCN1; GABA = NCCCC(=O)O
Provide the reported MC4R cAMP EC50 of each item.
Answers are plain numbers, in nM.

Consider the worked cases shown below.
cyclo([Pen]PH[dF]HWCAKKKR) (disulfide 1-7; SMILES C[C@@H]1NC(=O)[C@@H]2CSSC(C)(C)[C@H](NC(=O)[C@H](CCCNC(=N)N)NC(=O)[C@H](CCCCN)NC(=O)[C@H](CCCCN)NC(=O)[C@H](CCCCN)NC1=O)C(=O)N1CCC[C@H]1C(=O)N[C@@H](Cc1c[nH]cn1)C(=O)N[C@H](Cc1ccccc1)C(=O)N[C@@H](Cc1c[nH]cn1)C(=O)N[C@@H](Cc1c[nH]c3ccccc13)C(=O)N2, also called c[c[Pen-Pro-His-D-Phe-His-Trp-Cys]-Ala-Lys-Lys-Lys-Arg]) [Chem. 92]    0.13
cyclo(C[GABA]H[dF]RWC[GABA]H[dF]RW) (disulfide 1-7; SMILES N=C(N)NCCC[C@@H]1NC(=O)[C@@H](Cc2ccccc2)NC(=O)[C@H](Cc2c[nH]cn2)NC(=O)CCCNC(=O)[C@@H]2CSSC[C@H](NC(=O)[C@H](Cc3c[nH]c4ccccc34)NC1=O)C(=O)NCCCC(=O)N[C@@H](Cc1c[nH]cn1)C(=O)N[C@H](Cc1ccccc1)C(=O)N[C@@H](CCCNC(=N)N)C(=O)N[C@@H](Cc1c[nH]c3ccccc13)C(=O)N2, also called c[c[Cys-GABA-His-D-Phe-Arg-Trp-Cys]-GABA-His-D-Phe-Arg-Trp]) [Chem. 35]    0.01
cyclo(C[Thz]H[dF]HWCAEEAW) (disulfide 1-7; SMILES C[C@@H]1NC(=O)[C@H](CCC(=O)O)NC(=O)[C@H](CCC(=O)O)NC(=O)[C@H](C)NC(=O)[C@@H]2CSSC[C@H](NC(=O)[C@H](Cc3c[nH]c4ccccc34)NC1=O)C(=O)N1CSC[C@H]1C(=O)N[C@@H](Cc1c[nH]cn1)C(=O)N[C@H](Cc1ccccc1)C(=O)N[C@@H](Cc1c[nH]cn1)C(=O)N[C@@H](Cc1c[nH]c3ccccc13)C(=O)N2, also called c[c[Cys-THAZ-His-D-Phe-His-Trp-Cys]-Ala-Glu-Glu-Ala-Trp]) [Chem. 105]    6.62

// sample cyclo(CA[Hyp][dF]RWCA[Hyp][dF]RW) (disulfide 1-7; SMILES C[C@@H]1NC(=O)[C@@H]2CSSC[C@H](NC(=O)[C@H](Cc3c[nH]c4ccccc34)NC(=O)[C@H](CCCNC(=N)N)NC(=O)[C@@H](Cc3ccccc3)NC(=O)[C@@H]3C[C@@H](O)CN3C1=O)C(=O)N[C@@H](C)C(=O)N1C[C@H](O)C[C@H]1C(=O)N[C@H](Cc1ccccc1)C(=O)N[C@@H](CCCNC(=N)N)C(=O)N[C@@H](Cc1c[nH]c3ccccc13)C(=O)N2, also called c[c[Cys-Ala-Hyp-D-Phe-Arg-Trp-Cys]-Ala-Hyp-D-Phe-Arg-Trp]) [Chem. 14] , its MC4R cAMP EC50 was 3.55
